Test: Intravenous pharmacokinetics in rats
Assay type: in vivo
Details: male, Sprague Dawley, rat, plasma, iv, 1 mg/kg, Tmax, male rats, 1 mg/kg IV, GeoMean (third rat excluded)
endpoint: Tmax (min)
One number for each entry, in min.

Ask: Look at this compound and give its reported Tmax. C[C@]12CC[C@H](n3ccnc3)CC1=CC[C@@H]1[C@@H]2CC[C@]2(C)C(n3cnc4ccccc43)=CC[C@@H]12 [Compound 2]
Reply: 5

---

Experiment: Oral pharmacokinetics and bioavailability in rats
Assay type: in vivo
Settings: male, Sprague Dawley, rat, plasma, po, 10 mg/kg, Vz/F, male rats, 10 mg/kg PO, GeoMean
endpoint: Vd/F (L/kg)
Give bare numbers, in L/kg.

Ask: Look up Vd/F for this compound: C[C@]12CC[C@H](n3ccnc3)CC1=CC[C@@H]1[C@@H]2CC[C@]2(C)C(n3cnc4ccccc43)=CC[C@@H]12 [Compound 2]
Reply: 12.6
